FYI, the data here is from patent US10100001B2.

- TESTED ON: AC1 (Homo sapiens, UniProt Q08828)
- Construct: expressed in transfected cells
- Sequence (Q08828 whole entry): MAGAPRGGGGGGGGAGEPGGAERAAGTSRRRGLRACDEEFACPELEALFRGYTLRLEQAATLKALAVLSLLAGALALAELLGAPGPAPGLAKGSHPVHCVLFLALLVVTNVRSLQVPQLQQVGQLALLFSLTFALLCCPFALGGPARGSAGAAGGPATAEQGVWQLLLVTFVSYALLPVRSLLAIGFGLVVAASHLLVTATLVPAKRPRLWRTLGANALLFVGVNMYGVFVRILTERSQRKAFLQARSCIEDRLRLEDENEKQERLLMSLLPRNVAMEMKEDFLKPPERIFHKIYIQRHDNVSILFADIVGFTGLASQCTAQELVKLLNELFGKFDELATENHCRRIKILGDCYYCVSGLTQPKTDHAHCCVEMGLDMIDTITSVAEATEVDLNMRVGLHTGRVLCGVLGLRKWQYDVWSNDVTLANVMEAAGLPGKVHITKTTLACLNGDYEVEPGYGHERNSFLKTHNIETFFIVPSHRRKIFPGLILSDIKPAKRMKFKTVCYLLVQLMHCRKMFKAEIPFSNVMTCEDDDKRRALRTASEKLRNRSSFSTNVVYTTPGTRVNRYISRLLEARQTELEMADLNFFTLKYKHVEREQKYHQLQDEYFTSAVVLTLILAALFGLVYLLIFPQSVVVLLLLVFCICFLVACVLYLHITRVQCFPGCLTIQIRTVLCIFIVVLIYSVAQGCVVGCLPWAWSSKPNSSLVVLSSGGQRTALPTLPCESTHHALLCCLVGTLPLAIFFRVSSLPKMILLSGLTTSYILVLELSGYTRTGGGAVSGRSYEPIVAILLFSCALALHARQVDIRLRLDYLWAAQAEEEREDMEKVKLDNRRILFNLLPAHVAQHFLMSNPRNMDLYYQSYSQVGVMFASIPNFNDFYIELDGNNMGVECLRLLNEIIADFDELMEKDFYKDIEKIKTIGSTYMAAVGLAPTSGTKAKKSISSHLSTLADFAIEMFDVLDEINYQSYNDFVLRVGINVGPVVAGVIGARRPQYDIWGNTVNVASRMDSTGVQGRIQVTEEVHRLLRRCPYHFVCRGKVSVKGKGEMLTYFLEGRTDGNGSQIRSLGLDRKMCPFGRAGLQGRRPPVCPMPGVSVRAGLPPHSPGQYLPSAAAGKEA
- ASSAY TEXT: Inhibition of A23187-mediated (Ca2+-stimulated) cAMP accumulation in HEK cells stably expressing AC1
- Assay type: cell-based
- EXPERIMENTAL CONDITIONS: HEK293; 4 μM compound; read-out: AC1 Inhibition Percentage
PROPERTY NAME: inhibition at 4 µM (%)

These recorded examples may help you get a feel for the data.
COc1ccc(CN(C/C=C/c2ccccc2)CCc2c[nH]c3ccccc23)cc1 [Compound 7ba]	34
CCOC(=O)c1ccc(/C=C/CN(CCCC(=O)OC)Cc2ccc(F)cc2)cc1 [Compound 7gd]	-24
O=[N+]([O-])c1ccc(CN(C/C=C/c2ccccc2)CCc2c[nH]c3ccccc23)cc1 [Compound 7bc]	29

1: Cc1ccc(/C=C/CN(C)Cc2cccc3ccccc23)cc1 [Compound 7fa]
2: Fc1ccc(C(c2ccc(F)cc2)N2CCN(C/C=C/c3ccccc3)CC2)cc1 [Compound 3, reference compound]
Which is greater in inhibition at 4 µM, the first item 1 or the second item 2 ? Respond with the label that goes with your answer.
2
(2: 35%, 1: -26%)

----------
Here the recorded IC50 is given for each entry.
- TESTED ON: AC1 (Homo sapiens)
- ASSAY TEXT: Inhibition of A23187-mediated (Ca2+-stimulated) cAMP accumulation in HEK cells stably expressing AC1
- EXPERIMENTAL CONDITIONS: HEK cells stably expressing AC1; inhibitors 30 min, then 3 μM A23187 with IBMX; average and S.E.M. of at least three independent experiments; read-out: IC50 for inhibition of the A23187-mediated cAMP response of AC1
Numeric answer only, unit µM assumed.

These recorded examples may help you get a feel for the data.
COc1ccc2c(c1)C(c1ccccc1)CN(C/C=C/c1ccc(F)cc1)CC2 (stereo not shown)	14.8
C(=C\c1ccccc1)/CN(CCc1c[nH]c2ccccc12)Cc1cccc2ccccc12	8.95
Ic1ccc(/C=C/CN(CCc2c[nH]c3ccccc23)Cc2ccccc2)cc1	10.2

What IC50 appears in the records for this molecule with AC1 (Homo sapiens)? Fc1ccc(/C=C/CN(CCc2c[nH]c3ccccc23)Cc2ccccc2)cc1
12.9

----------
- TESTED ON: AC1 (Homo sapiens)
- Construct: expressed in transfected cells
- ASSAY TEXT: Inhibition of A23187-mediated (Ca2+-stimulated) cAMP accumulation in HEK cells stably expressing AC1
- Type: cell-based
- EXPERIMENTAL CONDITIONS: HEK293; 40 μM compound; read-out: AC1 Inhibition Percentage
PROPERTY NAME: inhibition at 40 µM (%)

CN(C/C=C/c1ccc(I)cc1)Cc1cccc2ccccc12 [Compound 7fd]	94
COc1ccc2c(c1)C(c1ccccc1)CN(C/C=C/c1ccc(Cl)cc1)CC2 (centres unmarked) [Compound 7je]	78
CN(C/C=C/c1ccc(Cl)cc1)Cc1cccc2ccccc12 [Compound 7ff]	91
CN(C/C=C/c1ccc(C(F)(F)F)cc1)Cc1cccc2ccccc12 [Compound 7fh]	87
Fc1ccc(CN(C/C=C/c2ccccc2)CCc2c[nH]c3ccccc23)cc1 [Compound 7bb]	96

----------
- TESTED ON: AC1 (Homo sapiens, UniProt Q08828)
- Construct: expressed in transfected cells
- ASSAY TEXT: Inhibition of A23187-mediated (Ca2+-stimulated) cAMP accumulation in HEK cells stably expressing AC1
- Type: cell-based
- EXPERIMENTAL CONDITIONS: HEK293; 40 μM compound; read-out: AC1 Inhibition Percentage
PROPERTY NAME: inhibition at 40 µM (%)

COC(=O)CCCN(C/C=C/c1ccccc1)Cc1ccc(F)cc1 [Compound 7ga]	67
Cc1ccc(/C=C/CN(CCc2c[nH]c3ccccc23)Cc2ccccc2)cc1 [Compound 7ab]	91
Cc1ccc(S(=O)(=O)N2CCCN(C/C=C/c3ccccc3)CC2)cc1 [Compound 7ha, 1-cinnamyl-4-tosyl-1,4-diazepane]	73
O=[N+]([O-])c1ccc(CN(C/C=C/c2ccccc2)CCc2c[nH]c3ccccc23)cc1 [Compound 7bc]	88
C(=C\c1ccccc1)/CN(CCc1c[nH]c2ccccc12)Cc1ccccc1 [Compound 7aa]	92
Cc1ccc(/C=C/CN(C)Cc2cccc3ccccc23)cc1 [Compound 7fa]	95
CN(C/C=C/c1ccc(F)cc1)Cc1cccc2ccccc12 [Compound 7fe]	85
FC(F)(F)c1ccc(/C=C/CN(CCc2c[nH]c3ccccc23)Cc2ccccc2)cc1 [Compound 7ah]	96
Brc1ccc(/C=C/CN(CCc2c[nH]c3ccccc23)Cc2ccccc2)cc1 [Compound 7ag]	96
COc1ccc(/C=C/CN(C)Cc2cccc3ccccc23)cc1 [Compound 7fj]	82
Cc1cccc(/C=C/CN(C)Cc2cccc3ccccc23)c1 [Compound 7fb]	63
CCOC(=O)c1ccc(/C=C/CN(C)Cc2cccc3ccccc23)cc1 [Compound 7fi]	85

----------
- TESTED ON: AC1 (Homo sapiens, UniProt Q08828)
- Construct: expressed in transfected cells
- ASSAY TEXT: Inhibition of A23187-mediated (Ca2+-stimulated) cAMP accumulation in HEK cells stably expressing AC1
- Assay type: cell-based
- EXPERIMENTAL CONDITIONS: HEK293; 4 μM compound; read-out: AC1 Inhibition Percentage
- Description: HEK cells stably expressing AC1 were treated with inhibitors for 30 min, and subsequently incubated with 3 μM A23187 in the presence of 2 mM IBMX. Data represent the average and S.E.M. of at least three independent experiments. A23187 is a Ca2+ ionophore, which promotes Ca2+ binding to calmodulin in the cells and, subsequent stimulation of AC1. […]
PROPERTY NAME: inhibition at 4 µM (%)

1: COc1ccc(/C=C/CN(C)Cc2cccc3ccccc23)cc1 [Compound 7fj]
2: Cc1ccccc1/C=C/CN(C)Cc1cccc2ccccc12 [Compound 7fc]
I would appreciate it if you could say which entry, 1 or 2 , has the lower inhibition at 4 µM value. Respond with the label that goes with your answer.
2

----------
- TESTED ON: AC1 (Homo sapiens, UniProt Q08828)
- Construct: expressed in transfected cells
- ASSAY TEXT: Inhibition of A23187-mediated (Ca2+-stimulated) cAMP accumulation in HEK cells stably expressing AC1
- Type: cell-based
- EXPERIMENTAL CONDITIONS: HEK293; 40 μM compound; read-out: AC1 Inhibition Percentage
- Protocol: HEK cells stably expressing AC1 were treated with inhibitors for 30 min, and subsequently incubated with 3 μM A23187 in the presence of 2 mM IBMX. Data represent the average and S.E.M. of at least three independent experiments. A23187 is a Ca2+ ionophore, which promotes Ca2+ binding to calmodulin in the cells and, subsequent stimulation of AC1. […]
PROPERTY NAME: inhibition at 40 µM (%)

These recorded examples may help you get a feel for the data.
C(=C\c1ccccc1)/CN(CCc1c[nH]c2ccccc12)Cc1cccc2ccccc12 [Compound 7c]	86
Cn1cc(CCN(C/C=C/c2ccccc2)Cc2ccccc2)c2ccccc21 [Compound 7d]	101
Cc1ccc(/C=C/CN2CCCN(S(=O)(=O)c3ccc(C)cc3)CC2)cc1 [Compound 7hb]	27
C(=C\c1ccccc1)/CN(Cc1ccccc1)Cc1ccccc1 [Compound 7e]	75
COc1ccc2c(c1)C(c1ccccc1)CN(CC=Cc1ccccc1)CC2 (stereo not drawn) [Compound 7ja]	95
COc1ccc2c(c1)C(c1ccccc1)CN(C/C=C/c1ccc(I)cc1)CC2 (stereo not drawn) [Compound 7jc]	51
Fc1ccc(C(c2ccc(F)cc2)N2CCN(C/C=C/c3ccccc3)CC2)cc1 [Compound 3, reference compound]	97
Cc1cccc(/C=C/CN(CCc2c[nH]c3ccccc23)Cc2ccccc2)c1 [Compound 7ac]	93

P: Cc1ccc(S(=O)(=O)N2CCCN(C/C=C/c3ccc(Cl)cc3)CC2)cc1 [Compound 7hc]
Q: COc1ccc(/C=C/CN(C)Cc2cccc3ccccc23)cc1OC [Compound 7fk]
I would appreciate it if you could say which entry, P or Q , has the lower inhibition at 40 µM value. Respond with the label that goes with your answer.
Q

----------
- TESTED ON: AC1 (Homo sapiens, UniProt Q08828)
- Construct: expressed in transfected cells
- ASSAY TEXT: Inhibition of A23187-mediated (Ca2+-stimulated) cAMP accumulation in HEK cells stably expressing AC1
- Format: cell-based
- EXPERIMENTAL CONDITIONS: HEK293; 40 μM compound; read-out: AC1 Inhibition Percentage
PROPERTY NAME: inhibition at 40 µM (%)

COc1ccc2c(c1)C(c1ccccc1)CN(C/C=C/c1ccc(C(F)(F)F)cc1)CC2 (stereo not drawn)	88
Fc1ccc(/C=C/CN(CCc2c[nH]c3ccccc23)Cc2ccccc2)cc1	91
COc1ccc2c(c1)C(c1ccccc1)CN(C/C=C/c1ccc(C)cc1)CC2 (stereo not drawn)	90

----------
- TESTED ON: AC1 (Homo sapiens, UniProt Q08828)
- Construct: expressed in transfected cells
- ASSAY TEXT: Inhibition of A23187-mediated (Ca2+-stimulated) cAMP accumulation in HEK cells stably expressing AC1
- Assay type: cell-based
- EXPERIMENTAL CONDITIONS: HEK293; 4 μM compound; read-out: AC1 Inhibition Percentage
PROPERTY NAME: inhibition at 4 µM (%)

These recorded examples may help you get a feel for the data.
CN(C/C=C/c1cccc([N+](=O)[O-])c1)Cc1cccc2ccccc12	-28
COc1ccc2c(c1)C(c1ccc(Br)cc1)CN(C/C=C/c1ccc(Cl)cc1)CC2 (stereo not drawn)	32

P: Cc1ccc(/C=C/CN2CCCN(S(=O)(=O)c3ccc(C)cc3)CC2)cc1
Q: COc1ccc2c(c1)C(c1ccccc1)CN(C/C=C/c1ccc(Cl)cc1)CC2 (stereo not drawn)
R: Cc1cccc(/C=C/CN(C)Cc2cccc3ccccc23)c1
S: COC(=O)CCCN(C/C=C/c1ccc(C)cc1)Cc1ccc(F)cc1
T: COc1ccc(/C=C/CN(C)Cc2cccc3ccccc23)cc1OC
Rank the items in ascending order with respect to inhibition at 4 µM. Give the labels in the order specified.
P, T, S, R, Q

A: COC(=O)CCCN(C/C=C/c1ccc(Cl)cc1)Cc1ccc(F)cc1
B: Brc1ccc(/C=C/CN(CCc2c[nH]c3ccccc23)Cc2ccccc2)cc1
C: C(=C\c1ccccc1)/CN(CCc1c[nH]c2ccccc12)Cc1cccc2ccccc12
Rank the items in ascending order with respect to inhibition at 4 µM. Give the labels in the order specified.
A, C, B

A: CN(C/C=C/c1ccc(Cl)cc1)Cc1cccc2ccccc12
B: C(=C\c1ccccc1)/CN(Cc1ccccc1)Cc1ccccc1
C: COc1ccc2c(c1)C(c1ccccc1)CN(CC=Cc1ccccc1)CC2 (stereo not drawn)
hey, can you rank those molecules up there by inhibition at 4 µM? biggest number first please Give the labels in the order specified.
C, A, B
